Entries and their IC50 values follow.
target: human AT2R fused to Cb23 (Homo sapiens); test: Radioligand binding assay, displacement of 125I-[Sar1, Ile8]-Angiotensin II, hAT2R Cb23; conditions: displacement of 125I-[Sar1, Ile8]-Angiotensin II, human AT2R fused to Cb23, HEK-293 cell membrane preparations; read-out: Binding affinity on hAT2R_Cb23 IC50
Sequence (P50052 whole entry, looked up, the tested form may be a part): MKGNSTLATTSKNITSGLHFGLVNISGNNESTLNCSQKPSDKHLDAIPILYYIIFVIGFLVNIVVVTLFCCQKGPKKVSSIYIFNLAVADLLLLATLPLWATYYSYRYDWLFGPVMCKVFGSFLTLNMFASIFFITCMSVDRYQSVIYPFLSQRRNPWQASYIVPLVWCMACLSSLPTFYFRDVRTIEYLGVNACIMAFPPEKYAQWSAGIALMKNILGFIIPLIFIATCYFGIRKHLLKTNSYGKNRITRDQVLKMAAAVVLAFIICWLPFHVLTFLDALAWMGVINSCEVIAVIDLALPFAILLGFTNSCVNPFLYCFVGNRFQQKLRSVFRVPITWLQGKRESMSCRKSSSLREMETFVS
Express the result in µM but write the number alone.

Record excerpt, results attached:
>>> measured_value("COc1ccc(CN2CCN(c3cc(CC(C)C)ccc3-c3nn[nH]n3)CC2)nn1 [Compound A-115]")
1.98
>>> measured_value("CNc1cc(CC(C)C)cc(N2CCN(Cc3cccnn3)CC2)c1-c1nn[nH]n1 [Compound A-171]")
0.0158
>>> measured_value("CC(C)Cc1cc(F)c(-c2nn[nH]n2)c(N2CCN(Cc3nc4ccccc4s3)CC2)c1 [Compound A-132]")
0.355

Sample CCc1cnc(-c2nn[nH]n2)c(N2CCN(Cc3nc4ccccc4s3)CC2)c1 [Compound A-141] , system: human AT2R fused to Cb23 (Homo sapiens). Its IC50 is 22.7

----------
test: Liver microsomal stability, rat; assay type: in vitro ADME; settings: male, pH 7.4, liver microsomes
Measured Endpoint: log10 of microsomal CLint (log10 of the value in µL/min/mg)
Please note: log10 values; quantity microsomal CLint; unit µL/min/mg.

Record excerpt, results attached:
>>> measured_value("CC(C)Cc1ccc(-c2nn[nH]n2)c(N2CCN(Cc3nc4ccccc4c(=O)[nH]3)CC2)c1")
0.70
>>> measured_value("CCCCOC(=O)NS(=O)(=O)c1ccc(C(F)(F)F)cc1N1CCN(Cc2nc3ccccc3n2C)CC1")
1.52
>>> measured_value("CC(C)Cc1ccc(-c2nn[nH]n2)c(N2CCN(Cc3nc4ccccc4s3)CC2)c1")
1.11
>>> measured_value("CCC1CN(Cc2cccnn2)CCN1c1cc(CC(C)C)cc(F)c1-c1nn[nH]n1 (stereo not shown)")
0.70
>>> measured_value("Cc1cc(CN2CCN(c3cc(CC(C)C)ccc3-c3nn[nH]n3)CC2)no1")
0.60

GET /value?item= CC(C)Cc1ccc(-c2nn[nH]n2)c(N2CCN(Cc3cccnn3)CC2)c1 &field=log10 of microsomal CLint returns 0.60

GET /value?item= CC(C)Oc1ccc(-c2nn[nH]n2)c(N2CCN(Cc3nc4ccccc4n3C)CC2)c1 &field=log10 of microsomal CLint returns 0.85

GET /value?item= CCCCNC(=O)NS(=O)(=O)c1ccc(C(F)(F)F)cc1N1CCN(Cc2nc3ccccc3n2C)CC1 &field=log10 of microsomal CLint returns 1.45

GET /value?item= CC(C)Cc1cc(F)c(-c2nn[nH]n2)c(N2CCN(Cc3cccnn3)C(C)C2)c1 (stereo not shown) &field=log10 of microsomal CLint returns 1.08

GET /value?item= CC(C)Oc1ccc(-c2nn[nH]n2)c(N2CCN(Cc3nc4ccccc4c(=O)[nH]3)CC2)c1 &field=log10 of microsomal CLint returns 1.11

GET /value?item= CC(C)Cc1ccc(-c2nn[nH]n2)c(N2CCN(Cc3nc4ccccc4n3C)CC2)c1 &field=log10 of microsomal CLint returns 1.45

GET /value?item= CC(C)Cc1ccc(-c2nn[nH]n2)c(N2CCN(Cc3nccn3C)CC2)c1 &field=log10 of microsomal CLint returns 0.48
